The origin of these recorded values is patent US6875761B2.

Where a name gives a salt, the structure may show the parent alone.
Recorded Metric: melting point

{"columns": ["Molecule", "Recorded Metric", "Value Reported"],
 "data": [
  ["CCN1CCN(c2nc(-c3ccc(CCC(C)O)cc3)cc3cccnc23)CC1 (centres unmarked) (as salt: hydrochloride) [Example 248, Dihydrochloride]", "melting point", "118 to 121 °C"],
  ["CCN1CCN(c2nc(-c3cnc(N4CCOCC4)s3)cc3ccccc23)CC1 (as salt: hydrochloride) [Example 173, dihydrochloride]", "melting point", "265 °C (dec.)"],
  ["CCCC(O)c1ccc(-c2cc3ccccc3c(N3CCN(CC)CC3)n2)cc1 (centres unmarked) (as salt: oxalate) [Example 21]", "melting point", "198.5 to 199.5 °C"],
  ["CCN1CCN(c2nc(-c3ccc(N(C)C)cc3)cc3ccccc23)CC1 (as salt: hydrochloride) [Example 66, Dihydrochloride]", "melting point", "160 to 162 °C (dec.)"],
  ["CCN1CCN(c2nc(-c3ccc(/C=N\\O)cc3)cc3ccccc23)CC1.Cl [Example 60]", "melting point", "239 °C (dec.)"],
  ["CCN1CCN(c2nc(-c3ccc(OC[C@@H](C)O)cc3)cc3ccsc23)CC1 (as salt: hydrochloride) [Example 435, dihydrochloride]", "melting point", "126 to 127 °C"],
  ["CCN1CCN(c2nc(-c3ccc(OC[C@@H](C)O)cc3)cc3ccccc23)CC1 (as salt: hydrochloride) [Example 403, Dihydrochloride]", "melting point", "112 to 114 °C"],
  ["CCC1CCN(c2nc(-c3ccc(OC)cc3)cc3ccccc23)CC1.Cl", "melting point", "109 to 114 °C"],
  ["CCN1CCN(c2nc(-c3ccc(OC)c(CCCO)c3)cc3ccccc23)CC1 (as salt: hydrochloride) [Example 34]", "melting point", "157 to 160 °C"],
  ["CCN1CCN(c2nc(C(=O)c3ccc(OC)cc3)cc3ccccc23)CC1 (as salt: oxalate) [Example 112]", "melting point", "176 to 179 °C"],
  ["CCCNC(=O)c1ccc(-c2cc3ccsc3c(N3CCN(CC)CC3)n2)cc1 (as salt: hydrochloride) [Example 449, dihydrochloride]", "melting point", "136.5 to 138 °C"],
  ["CCN1CCN(c2nc(C#Cc3ccc(OCCO)cc3)cc3ccccc23)CC1 (as salt: hydrochloride) [Example 183, Dihydrochloride]", "melting point", "205 to 208 °C"],
  ["CCN1CCN(c2nc(/C=C/c3cccc(N4CCOCC4)c3)cc3ccccc23)CC1 (as salt: oxalate) [Example 204]", "melting point", "180 to 182 °C"],
  ["C=CCN1CCN(c2nc(-c3ccc(OC)cc3)cc3ccccc23)CC1 (as salt: hydrochloride) [Example 240, dihydrochloride]", "melting point", "111 to 116 °C"]
]}

----------
Where a name gives a salt, the structure may show the parent alone.
Below, each entry is listed alongside its reported melting point.

{"columns": ["Molecule", "melting point"],
 "data": [
  ["CCN1CCN(c2nc(-c3ccc(OCCCO)cc3)cc3ccsc23)CC1 (as salt: hydrochloride) [Example 434, dihydrochloride]", "126 to 127 °C"],
  ["CCN1CCN(c2nc(-c3ccc(CCCO)c(OC)c3)cc3ccsc23)CC1 (as salt: hydrochloride)", "114 to 115 °C"],
  ["CCN1CCN(c2nc(-c3ccc(CS(C)(=O)=O)cc3)cc3ccccc23)CC1 (as salt: hydrochloride)", "260 to 262 °C"],
  ["CCCNS(=O)(=O)Cc1ccc(-c2cc3ccccc3c(N3CCN(CC)CC3)n2)cc1 (as salt: hydrochloride)", "194 to 197 °C"],
  ["CCN1CCN(c2nc(COc3ccc(OC)cc3)cc3ccccc23)CC1 (as salt: hydrochloride)", "101 to 102 °C"],
  ["CCN1CCN(c2nc(C3CCCc4cc(OC)ccc43)cc3ccccc23)CC1 (centres unmarked) (as salt: oxalate)", "170 to 173 °C"],
  ["CCN1CCN(c2nc(-c3ccc(CCCO)cc3)cc3ccsc23)CC1 (as salt: hydrochloride)", "112 to 113 °C"],
  ["CCN1CCN(c2nc(-c3ccc(C(F)CCO)cc3)cc3ccccc23)CC1 (centres unmarked) (as salt: hydrochloride)", "141 to 146 °C"],
  ["CCN1CCN(c2nc(-c3csc(C4=CCOCC4)c3)cc3ccccc23)CC1 (as salt: hydrochloride)", "190 to 193 °C"],
  ["CCN1CCN(c2nc(-c3ccc(OC)cc3OC)cc3ccccc23)CC1 (as salt: hydrochloride) [Example 12, Dihydrochloride]", "145 to 148 °C"],
  ["CCN1CCN(c2nc(-c3ccccc3OC)cc3ccc(OC)cc23)CC1 (as salt: hydrochloride)", "178 to 179 °C"],
  ["CCN1CCN(c2nc(-c3ccc(OC(F)(F)F)cc3)cc3ccccc23)CC1 (as salt: hydrochloride) [Example 339, dihydrochloride]", "113 to 115 °C"],
  ["CCN1CCN(c2nc(C#CCc3ccccc3)cc3ccccc23)CC1 (as salt: oxalate)", "180 to 183 °C"],
  ["CCN1CCN(c2nc(-c3ccc(OCCO)cc3OC)cc3ccccc23)CC1 (as salt: hydrochloride)", "140 to 142 °C"]
]}
